Cited source for all entries: paper PMC8950173

Test: Lipophilicity logD7.4, shake-flask method n-octanol/PBS
Format: physicochemical
Conditions: n-octanol/PBS pH 7.4, room temperature, n = 8
endpoint.name: logD

| compound | quantitative.readout |
| --- | --- |
| CC([18F])C(=O)NCc1ccc(C(=O)Nc2cc(-c3ccsc3)ccc2N)cc1 (stereo not shown) [[^18F]BA3] | 1.75 |

---

// reported pIC50 per item
Molecular target: human recombinant HDAC3/NcoR2 (Homo sapiens, UniProt O15379)
Sequence (O15379 whole entry): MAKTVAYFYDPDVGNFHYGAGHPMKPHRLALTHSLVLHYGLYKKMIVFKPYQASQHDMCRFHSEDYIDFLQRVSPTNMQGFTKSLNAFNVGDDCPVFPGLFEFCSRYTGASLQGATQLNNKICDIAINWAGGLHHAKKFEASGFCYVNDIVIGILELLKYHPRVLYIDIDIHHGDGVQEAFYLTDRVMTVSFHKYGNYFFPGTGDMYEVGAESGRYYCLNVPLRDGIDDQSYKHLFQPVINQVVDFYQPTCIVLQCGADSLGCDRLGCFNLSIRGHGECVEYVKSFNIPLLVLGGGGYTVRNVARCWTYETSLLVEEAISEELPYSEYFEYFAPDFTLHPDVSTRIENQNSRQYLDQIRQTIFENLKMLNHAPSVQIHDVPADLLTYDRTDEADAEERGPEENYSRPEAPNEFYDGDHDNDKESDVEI
Sequence (Q9Y618 395-489 partner limits assumed): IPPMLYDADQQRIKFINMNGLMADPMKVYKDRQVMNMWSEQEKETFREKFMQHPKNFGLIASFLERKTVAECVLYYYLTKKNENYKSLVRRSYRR
Experiment: Inhibition assay HDAC3 (fluorogenic substrate ZMAL)
Conditions: 60 min preincubation at 25 °C
pIC50: −log10 of the molar value.

| compound | relation.symbol | pIC50 |
| --- | --- | --- |
| CC(F)C(=O)Nc1ccc(C(=O)Nc2cc(-c3ccc(F)cc3)ccc2N)cc1 (stereo not shown) | < | 5.95 |
| CC(F)C(=O)Nc1ccc(C(=O)Nc2cc(-c3ccco3)ccc2N)cc1 (stereo not shown) | = | 5.38 |
| CC(F)C(=O)NCc1ccc(C(=O)Nc2cc(-c3cccs3)ccc2N)cc1 (stereo not shown) | = | 5.64 |
| CC(F)C(=O)Nc1ccc(C(=O)Nc2cc(-c3ccoc3)ccc2N)cc1 (stereo not shown) | = | 5.48 |
| CC(F)C(=O)NCc1ccc(C(=O)Nc2cc(-c3ccco3)ccc2N)cc1 (stereo not shown) | = | 5.42 |
| CC(F)C(=O)Nc1ccc(C(=O)Nc2cc(-c3ccsc3)ccc2N)cc1 (stereo not shown) | < | 5.48 |
| CC(F)C(=O)NCc1ccc(C(=O)Nc2cc(-c3ccoc3)ccc2N)cc1 (stereo not shown) | = | 5.62 |
| CC(F)C(=O)NCc1ccc(C(=O)Nc2cc(-c3ccsc3)ccc2N)cc1 (stereo not shown) | < | 5.95 |
| CC(F)C(=O)Nc1ccc(C(=O)Nc2cc(-c3cccs3)ccc2N)cc1 (stereo not shown) | < | 5.95 |
| CC(F)C(=O)NCc1ccc(C(=O)Nc2cc(-c3ccc(F)cc3)ccc2N)cc1 (stereo not shown) | = | 5.89 |
